Origin of values: patent US20050037969A1

# SYSTEM: T1, NOS1 PDZ-GST fusion protein (Homo sapiens (Human), UniProt P29475 11-100)
# T1 construct: Order of GST and PDZ part and limits not seen in the excerpts
# T1 sequence (P29475 11-100 limits assumed): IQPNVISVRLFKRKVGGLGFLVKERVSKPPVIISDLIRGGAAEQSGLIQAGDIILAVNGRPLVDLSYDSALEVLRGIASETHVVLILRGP
# ASSAY NAME: A/G assays
Ends that are not written are not given here. * marks the point of attachment. Biotin = O=C1N[C@H]2[C@H](CS[C@H]2CCCCC(=O)*)N1
ENDPOINT NAME: binding result

1) Biotin-ISKATPALPTVSISSSAEV (also called AA1L-R) [Clasp-1 C-terminal peptide AA1L, biotinylated] : no binding
2) Biotin-SVFSIPTLWSPWPPSSSSQL (also called CD3η; CD3-eta) [CD3n C-terminal peptide AA4L, biotinylated] : no binding
3) Biotin-EVICYIEKPGVETLEDSVF [CDW125 (IL5R) C-terminal peptide AA28L, biotinylated] : no binding
4) Biotin-DLGNMEENKKLEENNHKTEA (also called CD166 (CD6L)) [CD166 C-terminal peptide AA20L, biotinylated] : no binding
5) Biotin-CAISGTSSDRGYGSPRYAEV (also called AA3L-V) [Clasp-4 C-terminal peptide AA3L, biotinylated] : no binding
6) Biotin-QATSENGHSARQHVVADTEL [CD34 C-terminal peptide AA7L, biotinylated] : no binding
7) Biotin-KKGTYLTDETHREVKFTSL [CD46 (Form 1) C-terminal peptide AA10L, biotinylated] : no binding
8) Biotin-LNFPLLQGIRVHGMEALGSF (Only the last four residues are seen in the excerpts) [CD114 (G-CSFR) C-terminal peptide AA27L] : no binding
9) Biotin-LASKSAEEGKQIPDSLSTDL [DOCK2 C-terminal peptide AA40L, biotinylated] : no binding
10) Biotin-PSWRRSSLSESENATSLTTF (also called CXCR5) [BLR-1 C-terminal peptide AA45L, biotinylated] : no binding
11) Biotin-PYGTAMEKAQLKPPATSDA (also called CD49E (alpha-4)) [CD49E C-terminal peptide AA11L, biotinylated] : no binding
